- target: LC3A (microtubule-associated protein 1A/1B light chain 3A) (human, UniProt Q9H492 1-121)
- procedure_text: ITC; MicroCal VP-ITC, 30 °C; protein 10 μM in the cell, 10 μl injections of peptide (100-150 μM); 25 mM potassium phosphate, 150 mM NaCl, pH 7.0; no reducing agent; one site binding model; two independent measurements
- run_parameters: both partners purified
pKd: −log10 of the molar value.
endpoint: pKd

• SGGDDDWTHLSS (also called p62 AIM; source: synthetic peptide; bought: Genosphere Biotechnologies and Peptide Synthetics) [p62 WT-AIM peptide] = 5.34
